biological target: CDK6/Cyclin D3 (Homo sapiens (Human), UniProt Q00534); assay: CDK6/Cyclin D3 mobility shift assay; details: activated CDK6/Cyclin D3, 3.5 mM ATP, Morrison fit; read-out: CDK6_D3 Ki
Sequence (Q00534 whole entry): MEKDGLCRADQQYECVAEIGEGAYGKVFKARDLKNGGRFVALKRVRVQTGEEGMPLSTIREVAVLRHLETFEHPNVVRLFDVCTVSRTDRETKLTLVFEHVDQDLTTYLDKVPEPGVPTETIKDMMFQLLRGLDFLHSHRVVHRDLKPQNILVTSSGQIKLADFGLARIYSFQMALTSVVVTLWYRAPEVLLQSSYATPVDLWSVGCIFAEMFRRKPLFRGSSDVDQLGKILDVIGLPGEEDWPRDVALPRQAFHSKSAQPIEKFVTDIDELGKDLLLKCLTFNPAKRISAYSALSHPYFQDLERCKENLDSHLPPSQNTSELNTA
Sequence (P30281 whole entry partner): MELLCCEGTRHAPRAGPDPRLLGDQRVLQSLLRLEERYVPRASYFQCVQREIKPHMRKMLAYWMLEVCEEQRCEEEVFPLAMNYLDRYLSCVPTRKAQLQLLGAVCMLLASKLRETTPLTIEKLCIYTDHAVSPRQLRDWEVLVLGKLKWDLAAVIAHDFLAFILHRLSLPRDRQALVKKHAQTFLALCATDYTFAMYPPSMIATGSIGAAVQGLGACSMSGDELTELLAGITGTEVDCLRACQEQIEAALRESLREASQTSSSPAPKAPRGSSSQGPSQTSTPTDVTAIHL
pKi: −log10 of the molar value.
ENDPOINT: pKi

[[record]]
compound = "CC1(C)CCc2nc3c(F)cc(-c4nc(N[C@@H]5CCN(S(C)(=O)=O)C[C@H]5O)ncc4Cl)cc3n21"
endpoint = "pKi"
meas_value = 8.85

[[record]]
compound = "CC(C)n1c(CNC2COC2)nc2c(F)cc(-c3nc(N[C@@H]4CCN(S(C)(=O)=O)C[C@H]4O)ncc3Cl)cc21"
endpoint = "pKi"
meas_value = 7.73

[[record]]
compound = "CC(C)n1c(CN2CC(C)(O)C2)nc2c(F)cc(-c3nc(N[C@@H]4CCOC[C@H]4O)ncc3Cl)cc21"
endpoint = "pKi"
meas_value = 6.90

[[record]]
compound = "CC(C)n1c([C@H](C)O)nc2cc(F)c(-c3nc(N[C@@H]4CCOC[C@H]4O)ncc3Cl)cc21"
endpoint = "pKi"
meas_value = 8.10

[[record]]
compound = "CC(C)n1c(C2(N)CC2)nc2c(F)cc(-c3nc(N[C@@H]4CCOC[C@H]4O)ncc3Cl)cc21"
endpoint = "pKi"
meas_value = 7.36

[[record]]
compound = "Cc1nc2c(F)cc(-c3nc(N[C@@H]4CCN(S(C)(=O)=O)C[C@H]4O)ncc3Cl)cc2n1CC(C)N (some centres unmarked)"
endpoint = "pKi"
meas_value = 8.46

[[record]]
compound = "OCc1nc2c(F)cc(-c3nc(N[C@@H]4CCOC[C@H]4O)ncc3Cl)cc2n1C1CC(F)(F)C1"
endpoint = "pKi"
meas_value = 7.26

[[record]]
compound = "CC(C)n1c(CNC2CC2)nc2c(F)cc(-c3nc(N[C@@H]4CCOC[C@H]4O)ncc3Cl)cc21"
endpoint = "pKi"
meas_value = 7.66

[[record]]
compound = "CC(C)n1c(C2CNC2)nc2c(F)cc(-c3nc(N[C@@H]4CCOC[C@H]4O)ncc3Cl)cc21"
endpoint = "pKi"
meas_value = 7.05

[[record]]
compound = "COCC(C)n1c(C)nc2c(F)cc(-c3nc(N[C@@H]4CCN(S(C)(=O)=O)C[C@H]4O)ncc3Cl)cc21 (single isomer, unassigned) [Example A74]"
endpoint = "pKi"
meas_value = 8.21

[[record]]
compound = "Cc1nc2c(F)cc(-c3nc(N[C@@H]4CCN(S(C)(=O)=O)C[C@H]4O)ncc3C#N)cc2n1C(C)C"
endpoint = "pKi"
meas_value = 8.82

[[record]]
compound = "COCC(C)n1c(C)nc2c(F)cc(-c3nc(N[C@@H]4CCN(S(C)(=O)=O)C[C@H]4O)ncc3Cl)cc21 (single isomer, unassigned) [Example A73]"
endpoint = "pKi"
meas_value = 7.79

[[record]]
compound = "CC(C)n1cnc2c(Cl)cc(-c3nc(N[C@@H]4CCN(C(=O)[C@@H](C)O)C[C@H]4O)ncc3Cl)cc21"
endpoint = "pKi"
meas_value = 7.61

[[record]]
compound = "CC(C)n1c(CN2CC(F)C2)nc2c(F)cc(-c3nc(N[C@@H]4CCOC[C@H]4O)ncc3Cl)cc21"
endpoint = "pKi"
meas_value = 7.45


* * *

target: CDK4 (Homo sapiens (Human), UniProt P11802); assay: Phospho-Serine 795 Rb ELISA assay in JEKO-1 cells; conditions: overnight treatment, phospho-Rb S795, read-out: CDK4 pRB S795 ELISA JEKO-1 cells IC50
Sequence (P11802 2-303): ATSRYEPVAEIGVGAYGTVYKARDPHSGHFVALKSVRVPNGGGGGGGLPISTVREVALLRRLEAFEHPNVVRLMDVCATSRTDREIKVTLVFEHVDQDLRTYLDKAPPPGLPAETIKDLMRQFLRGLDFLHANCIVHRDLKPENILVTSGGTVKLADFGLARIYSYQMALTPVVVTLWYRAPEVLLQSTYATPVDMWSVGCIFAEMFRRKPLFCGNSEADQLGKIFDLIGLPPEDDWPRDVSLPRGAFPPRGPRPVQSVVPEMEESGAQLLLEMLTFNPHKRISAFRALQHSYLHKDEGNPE
Sequence (P24385 whole entry partner): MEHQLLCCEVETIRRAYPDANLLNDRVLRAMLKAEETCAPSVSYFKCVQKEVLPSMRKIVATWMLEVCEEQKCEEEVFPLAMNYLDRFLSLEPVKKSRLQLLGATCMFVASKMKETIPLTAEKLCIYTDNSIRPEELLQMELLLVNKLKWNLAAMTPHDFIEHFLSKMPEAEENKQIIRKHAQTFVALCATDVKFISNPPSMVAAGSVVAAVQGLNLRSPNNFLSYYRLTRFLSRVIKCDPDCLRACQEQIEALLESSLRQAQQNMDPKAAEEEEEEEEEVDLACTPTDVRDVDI
Structures can show the parent of a compound that is named as a salt.
ENDPOINT: IC50 (nM)

[[record]]
compound = "CC1(C)COCc2nc3c(F)cc(-c4nc(N[C@@H]5CCOC[C@H]5O)ncc4F)cc3n21"
endpoint = "IC50"
meas_value = 69.1

[[record]]
compound = "CC(C)n1c(CNC2COC2)nc2c(F)cc(-c3nc(N[C@@H]4CCN(S(C)(=O)=O)C[C@H]4O)ncc3Cl)cc21"
endpoint = "IC50"
meas_value = 205

[[record]]
compound = "CC(C)n1c(CNC2CC2)nc2c(F)cc(-c3nc(N[C@@H]4CCOC[C@H]4O)ncc3Cl)cc21"
endpoint = "IC50"
meas_value = 43.4

[[record]]
compound = "CC1CNCc2nc3c(F)cc(-c4nc(N[C@@H]5CCOC[C@H]5O)ncc4Cl)cc3n21 (single isomer, unassigned)"
endpoint = "IC50"
meas_value = 198

[[record]]
compound = "CC(O)c1nc2c(F)cc(-c3nc(N[C@@H]4CCOC[C@H]4O)ncc3Cl)cc2n1C(C)C(F)F (single isomer, unassigned)"
endpoint = "IC50"
meas_value = 19.6

[[record]]
compound = "CC(C)n1c(CN2C[C@@](C)(O)[C@@H]2C)nc2c(F)cc(-c3nc(N[C@@H]4CCOC[C@H]4O)ncc3Cl)cc21"
endpoint = "IC50"
meas_value = 63.4

[[record]]
compound = "CC(C)(C)n1cnc2c(F)cc(-c3nc(N[C@@H]4CCN(CCO)C[C@H]4O)ncc3Cl)cc21 [Example F05, formic acid salt]"
endpoint = "IC50"
meas_value = 248

[[record]]
compound = "CC(C)n1c(C(F)F)nc2c(F)cc(-c3nc(N[C@@H]4CCN(S(C)(=O)=O)C[C@H]4O)ncc3Cl)cc21"
endpoint = "IC50"
meas_value = 101

[[record]]
compound = "CC(C)(C)n1cnc2ccc(-c3nc(N[C@@H]4CCN(S(C)(=O)=O)C[C@H]4O)ncc3F)cc21"
endpoint = "IC50"
meas_value = 61.1

[[record]]
compound = "CC(C)n1c([C@@H](C)O)nc2c(F)cc(-c3nc(N[C@@H]4CCOC[C@H]4O)ncc3Cl)cc21"
endpoint = "IC50"
meas_value = 72.2

[[record]]
compound = "CNC(=O)CN1CC[C@@H](Nc2cc(-c3ccc4ncn(C(C)(C)C)c4n3)c(Cl)cn2)[C@H](O)C1"
endpoint = "IC50"
meas_value = 24.6

[[record]]
compound = "CC(C)n1c(C(C)(C)N)nc2c(F)cc(-c3nc(N[C@@H]4CCOC[C@H]4O)ncc3Cl)cc21"
endpoint = "IC50"
meas_value = 92.8

[[record]]
compound = "CC1(C)OCCn2nc3c(F)cc(-c4nc(N[C@@H]5CCN(S(C)(=O)=O)C[C@H]5O)ncc4Cl)cc3c21"
endpoint = "IC50"
meas_value = 12.2

[[record]]
compound = "CC(C)NCc1nc2c(F)cc(-c3nc(N[C@@H]4CCN(S(C)(=O)=O)C[C@H]4O)ncc3Cl)cc2n1C(C)C"
endpoint = "IC50"
meas_value = 14.9

